B1: library; a variant is named by its letters at N, in order (parent)
chain: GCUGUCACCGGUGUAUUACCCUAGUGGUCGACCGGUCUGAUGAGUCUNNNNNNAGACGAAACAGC

Variants of: B1
Assay: normalized RNA/DNA level without ligand (relative to sTRSVctl = 100) (log10 (% of sTRSVctl)); ligand: hypoxanthine (xanthine aptamer); higher = less ribozyme self-cleavage, higher mRNA level
Conditions: HEK293T, reporter: mCherry (pCS4076), ligand present: no
metric: normalized RNA/DNA level without ligand (log10)
I'd appreciate a reply containing only the number, no unit.

Consider the reported normalized RNA/DNA level without ligand (log10) for these variants:
GCUGUCACCGGUGUAUUACCCUAGUGGUCGACCGGUCUGAUGAGUCUGCGUAAAGACGAAACAGC [GCGUAA]	1.49
GCUGUCACCGGUGUAUUACCCUAGUGGUCGACCGGUCUGAUGAGUCUUCGCUUAGACGAAACAGC [UCGCUU]	1.7
GCUGUCACCGGUGUAUUACCCUAGUGGUCGACCGGUCUGAUGAGUCUUUCCAAAGACGAAACAGC [UUCCAA]	1.84
GCUGUCACCGGUGUAUUACCCUAGUGGUCGACCGGUCUGAUGAGUCUGCACGUAGACGAAACAGC [GCACGU]	1.73
GCUGUCACCGGUGUAUUACCCUAGUGGUCGACCGGUCUGAUGAGUCUUAAAGGAGACGAAACAGC [UAAAGG]	1.45

Need normalized RNA/DNA level without ligand (log10), item GCUGUCACCGGUGUAUUACCCUAGUGGUCGACCGGUCUGAUGAGUCUUCGCAAAGACGAAACAGC [UCGCAA]
1.6

Same read-out for GCUGUCACCGGUGUAUUACCCUAGUGGUCGACCGGUCUGAUGAGUCUGAUCUGAGACGAAACAGC [GAUCUG] ?
1.58

Same read-out for GCUGUCACCGGUGUAUUACCCUAGUGGUCGACCGGUCUGAUGAGUCUUGGUUCAGACGAAACAGC [UGGUUC] ?
1.92

Same read-out for GCUGUCACCGGUGUAUUACCCUAGUGGUCGACCGGUCUGAUGAGUCUGAACGGAGACGAAACAGC [GAACGG] ?
1.22

Same read-out for GCUGUCACCGGUGUAUUACCCUAGUGGUCGACCGGUCUGAUGAGUCUCAACUUAGACGAAACAGC [CAACUU] ?
1.87

Same read-out for GCUGUCACCGGUGUAUUACCCUAGUGGUCGACCGGUCUGAUGAGUCUAACCGUAGACGAAACAGC [AACCGU] ?
1.75

Same read-out for GCUGUCACCGGUGUAUUACCCUAGUGGUCGACCGGUCUGAUGAGUCUCGGGUCAGACGAAACAGC [CGGGUC] ?
1.95

Same read-out for GCUGUCACCGGUGUAUUACCCUAGUGGUCGACCGGUCUGAUGAGUCUCGAAAGAGACGAAACAGC [CGAAAG] ?
1.84

Same read-out for GCUGUCACCGGUGUAUUACCCUAGUGGUCGACCGGUCUGAUGAGUCUUAAUGUAGACGAAACAGC [UAAUGU] ?
1.6

Same read-out for GCUGUCACCGGUGUAUUACCCUAGUGGUCGACCGGUCUGAUGAGUCUCACGUUAGACGAAACAGC [CACGUU] ?
1.86

Same read-out for GCUGUCACCGGUGUAUUACCCUAGUGGUCGACCGGUCUGAUGAGUCUCAGUAGAGACGAAACAGC [CAGUAG] ?
1.57

Same read-out for GCUGUCACCGGUGUAUUACCCUAGUGGUCGACCGGUCUGAUGAGUCUCCCAGAAGACGAAACAGC [CCCAGA] ?
1.83

Just for reference, the supplement of paper PMC6757056 is where these values come from.
